Measured log10 IC50 of individual entries
Test system: Plasmodium falciparum
Experiment: microbe, parasite or virus in culture
Details: Dd2, 72 h
Description: Antiplasmodial activity against asexual blood-stage Plasmodium falciparum Dd2 using 2% haematocrit and 0.2% parasitemia assessed as reduction in fluorescence measured after 72 hrs by Malaria SYBR Green I-based Fluorescence (MSF) assay
measurement_label: log10 IC50 (log10 of the value in µM)

given_smiles	measurement_label	reported_measurement
CCC1=C(C)/C(=C/NC2CCCCC2)N=C1c1ccc(CC)[nH]1	log10 IC50	-1.83
COC1=C(OC)/C(=C/NC2CCCCCC2)N=C1c1ccc[nH]1	log10 IC50	-1.45
COC1=C(OC)/C(=C/NC23C[C@H]4C[C@@H](C2)C[C@@H](C3)C4)N=C1c1ccc[nH]1	log10 IC50	-2.22
CCC1=C(C)/C(=C/NC2CCCCCC2)N=C1c1ccc(C)[nH]1	log10 IC50	-1.73
CCc1ccc(C2=N/C(=C\NC3CCCCCC3)C(C)=C2C)[nH]1	log10 IC50	-2.88

###

System: MDR1 (human)
Assay: Apparent permeability across basolateral to apical side in MDCK transfected with human MDR1 cells incubated for 1 hr by LC-MS analysis
Settings: dog, MDCK-MDR1
Listed molecules paired with reported Papp B→A at 1 h
measurement_label: Papp B→A at 1 h (×10⁻⁶ cm/s)

given_smiles	measurement_label	value_units	reported_measurement
CCC1=C(CC)/C(=C/NC23C[C@H]4C[C@@H](C2)C[C@@H](C3)C4)N=C1c1ccc(Cc2ccc(OC)cc2)[nH]1	Papp B→A at 1 h	×10⁻⁶ cm/s	0.008
CCC1=C(CC)/C(=C/N[C@H]2CC[C@H](C(=O)OC)CC2)N=C1c1ccc[nH]1	Papp B→A at 1 h	×10⁻⁶ cm/s	0.74
C(/NC1CCCCC1)=C1/N=C(c2ccc[nH]2)C2=C1OCCO2	Papp B→A at 1 h	×10⁻⁶ cm/s	4.4
CCC1=C(CC)/C(=C/NC2CCCCCC2)N=C1c1ccc(Cl)[nH]1	Papp B→A at 1 h	×10⁻⁶ cm/s	0.076
CCC1=C(CC)/C(=C/N[C@H]2CC[C@H](C)CC2)N=C1c1ccc[nH]1	Papp B→A at 1 h	×10⁻⁶ cm/s	0.13
CCC1=C(CC)/C(=C/NC2CCCCCCC2)N=C1c1ccc(Cl)[nH]1	Papp B→A at 1 h	×10⁻⁶ cm/s	0.04
CCC1=C(CC)/C(=C/NC23C[C@H]4C[C@@H](C2)C[C@@H](C3)C4)N=C1c1ccc(C)[nH]1	Papp B→A at 1 h	×10⁻⁶ cm/s	0.006
CCC1=C(CC)/C(=C/N[C@H]2CC[C@H](C(F)(F)F)CC2)N=C1c1ccc[nH]1	Papp B→A at 1 h	×10⁻⁶ cm/s	0.6
C(/NC1CCCCCC1)=C1/N=C(c2ccc[nH]2)C2=C1OCCO2	Papp B→A at 1 h	×10⁻⁶ cm/s	2.9

###

Test system: Plasmodium falciparum
Assay: microbe, parasite or virus in culture
Details: Dd2, 72 h
// boundary case: IC50 equal to 20 nM maps to Not met; strictly smaller maps to Met

given_smiles	study_target	discrete_label
CCc1ccc(C2=N/C(=C\NC3CCCCCC3)C(OC)=C2OC)[nH]1	Plasmodium falciparum	Met
CCC1=C(CC)/C(=C/NC23C[C@H]4C[C@@H](C2)C[C@@H](C3)C4)N=C1c1ccc(Cc2ccc(OC)cc2)[nH]1	Plasmodium falciparum	Met
COC(=O)[C@H]1CC[C@H](N/C=C2\N=C(c3ccc[nH]3)C3=C2CCCC3)CC1	Plasmodium falciparum	Not met
C(/NC1CCCCC1)=C1/N=C(c2ccc[nH]2)C2=C1CCCC2	Plasmodium falciparum	Met
C(/NC1CCCCCC1)=C1/N=C(c2ccc[nH]2)C(c2ccccc2)=C1c1ccccc1	Plasmodium falciparum	Not met
CCC1=C(CC)/C(=C/NC2CCCCCCC2)N=C1c1ccc(-c2ccc(OC)cc2)[nH]1	Plasmodium falciparum	Not met
CCC1=C(CC)/C(=C/NC2CCCCC2)N=C1c1ccc(C#N)[nH]1	Plasmodium falciparum	Not met
CCC1=C(CC)/C(=C/NC2CCCCCC2)N=C1c1ccc(Br)[nH]1	Plasmodium falciparum	Not met
CCc1c(C(=O)NC23C[C@H]4C[C@@H](C2)C[C@@H](C3)C4)[nH]c(-c2ccc[nH]2)c1CC	Plasmodium falciparum	Not met

###

Test: in vitro
Conditions: human
Description: Selectivity index, ratio of IC50 for cytotoxicity against human HepG2 cells to IC50 for antiplasmodial activity against asexual blood-stage Plasmodium falciparum D6
measurement_label: selectivity ratio

given_smiles	measurement_label	reported_measurement
CCC1=C(CC)/C(=C/NC23C[C@H]4C[C@@H](C2)C[C@@H](C3)C4)N=C1c1ccc(-c2ccccc2)[nH]1	selectivity ratio	800
CCC1=C(CC)/C(=C/NC23C[C@H]4C[C@@H](C2)C[C@@H](C3)C4)N=C1c1ccc(Cl)[nH]1	selectivity ratio	315
CCC1=C(CC)/C(=C/NC23C[C@H]4C[C@@H](C2)C[C@@H](C3)C4)N=C1c1ccc(-c2ccc(OC)cc2)[nH]1	selectivity ratio	113
CCC1=C(CC)/C(=C/N[C@H]2CC[C@H](C(F)(F)F)CC2)N=C1c1ccc[nH]1	selectivity ratio	125
CCC1=C(CC)/C(=C/NC23C[C@H]4C[C@@H](C2)C[C@@H](C3)C4)N=C1c1ccc(C)[nH]1	selectivity ratio	2620
CCC1=C(CC)/C(=C/NC23C[C@H]4C[C@@H](C2)C[C@@H](C3)C4)N=C1c1cc2cc(OC)ccc2[nH]1	selectivity ratio	125
C[C@H]1CC[C@H](N/C=C2\N=C(c3ccc[nH]3)C3=C2CCCC3)CC1	selectivity ratio	1320

###

Tested on: Plasmodium falciparum
Assay: microbe, parasite or virus in culture
Settings: Dd2, 72 h
pIC50: −log10 of the molar value.

given_smiles	study_target	comparative_sign	pIC50
CCC1=C(CC)/C(=C/NC2CCCCC2)N=C1c1cc2ccccc2[nH]1	Plasmodium falciparum	<	5.60
CCC1=C(CC)/C(=C/NC23C[C@H]4C[C@@H](C2)C[C@@H](C3)C4)N=C1c1ccc(CC)[nH]1	Plasmodium falciparum	=	8.94
CCC1=C(CC)/C(=C/NC2CCCCC2)N=C1c1ccc(C)[nH]1	Plasmodium falciparum	=	8.09
CCC1=C(CC)/C(=C/NC2CCCCCC2)N=C1c1ccn[nH]1	Plasmodium falciparum	<	5.60
CCC1=C(CC)/C(=C/NC2CCCCC2)N=C1c1ccccc1OC	Plasmodium falciparum	<	5.60
CCC1=C(CC)/C(=C/NC2CCCCCCC2)N=C1c1ccc(Cl)[nH]1	Plasmodium falciparum	=	7.00
COc1ccc(Cc2ccc(C3=N/C(=C\NC4CCCCCC4)C4=C3CCCC4)[nH]2)cc1	Plasmodium falciparum	=	8.25
CCC1=C(CC)/C(=C/N[C@H]2CC[C@H](C)CC2)N=C1c1ccc[nH]1	Plasmodium falciparum	=	7.05
CCC1=C(CC)/C(=C/NC23CC4CC(CC(C4)C2)C3)N=C1c1ccc[nH]1	Plasmodium falciparum	=	9.00
CCC1=C(CC)/C(=C/NC23C[C@H]4C[C@@H](C2)C[C@@H](C3)C4)N=C1c1ccccc1F	Plasmodium falciparum	<	5.60

###

Assay: AUCinf in ICR-CD1 mouse liver at 40 mg/kg, po
Assay type: ADME, organism-based

given_smiles	AUC(0-inf), ng·h/mL
CCC1=C(CC)/C(=C/NC2CCCCC2)N=C1c1ccc(C)[nH]1	1980

###

// reported log10 of IC50 for each item listed
Tested on: HepG2
Test: Cytotoxicity against human HepG2 cells assessed as cell viability measured after 48 hrs by MTT assay
Type: toxicity, cell-based
Conditions: hepg2
measurement_label: log10 of IC50 (log10 of the value in µM)

given_smiles	reported_measurement
COc1ccc(Cc2ccc(C3=N/C(=C\NC4CCCCCC4)C4=C3OCCO4)[nH]2)cc1	0.17
CCC1=C(CC)/C(=C/NC2CCCCC2)N=C1c1ccc(CC)[nH]1	0.71
CCC1=C(CC)/C(=C/NC23C[C@H]4C[C@@H](C2)C[C@@H](C3)C4)N=C1c1ccc(Br)[nH]1	0.60
COc1ccc(C2=C(c3ccc(OC)cc3)/C(=C/NC34C[C@H]5C[C@@H](C3)C[C@@H](C4)C5)N=C2c2ccc[nH]2)cc1	0.90
CC1=C(C)/C(=C/NC2CCCCC2)N=C1c1ccc(C)[nH]1	0.83
CCC1=C(C)/C(=C/NC2CCCCC2)N=C1c1ccc(C)[nH]1	0.91
CCC1=C(CC)/C(=C/N[C@H]2CC[C@H](C(F)(F)F)CC2)N=C1c1ccc[nH]1	1.39
CCC1=C(CC)/C(=C/NC2CCCCCCC2)N=C1c1ccc(Cl)[nH]1	1.09
CCC1=C(CC)/C(=C/NC2CCCCC2)N=C1c1ccc[nH]1	1.11

###

Assay: in vitro
Details: human, liver microsomes
The threshold is 10 µL/min/mg. Values of microsomal CLint at 1 h beneath it are tagged MET; values meeting or exceeding it are tagged NOT MET.

given_smiles	discrete_label
CCC1=C(CC)/C(=C/NC2CCCCCC2)N=C1c1ccc(Br)[nH]1	NOT MET
COC1=C(OC)/C(=C/NC23C[C@H]4C[C@@H](C2)C[C@@H](C3)C4)N=C1c1ccc[nH]1	NOT MET
CCC1=C(CC)/C(=C/NC23C[C@H]4C[C@@H](C2)C[C@@H](C3)C4)N=C1c1ccc(-c2ccc(OC)cc2)[nH]1	NOT MET
CCC1=C(CC)/C(=C/NC2CCCCCC2)N=C1c1ccc(-c2ccccc2)[nH]1	NOT MET
CCC1=C(CC)/C(=C/NC2CCCCC2)N=C1c1ccc(-c2ccc(OC)cc2)[nH]1	MET
CCc1ccc(C2=N/C(=C\NC3CCCCCC3)C(C)=C2C)[nH]1	MET
CCC1=C(CC)/C(=C/N[C@H]2CC[C@H](C(F)(F)F)CC2)N=C1c1ccc[nH]1	NOT MET
CCc1ccc(C2=N/C(=C\NC3CCCCCC3)C3=C2OCCO3)[nH]1	NOT MET
